- Test system: velvetleaf
- METHOD: Test B pre/postemergence velvetleaf
- Assay type: in vivo, Abutilon theophrasti
- CONDITION NOTES: Preemergence, Rate 250 g/ha; scale 0 to 10, 0 is no effect, 10 is complete control
- Procedure: […] At the same time, these crop and weed species were also treated with postemergence applications of test chemicals formulated in the same manner. […] Treated plants and controls were maintained in a greenhouse for twelve to sixteen days, after which all species were compared to controls and visually evaluated. […]
QUANTITY: Velvetleaf plant response rating
Give the figure by itself; no unit, no explanation.

Worked examples follow.
{"columns": ["CHEMICAL SMILES", "EXPERIMENTAL SYSTEM", "Velvetleaf plant response rating"],
 "data": [
  ["CCOC(=O)C=C(Cn1c(=O)on(C(=O)N(c2ccc(F)cc2)C(C)C)c1=O)OCC", "velvetleaf", 0],
  ["CC(C)N(Cc1ccccc1)C(=O)n1oc(=O)n(C(C)C)c1=O", "velvetleaf", 4],
  ["CC(C)N(C(=O)n1oc(=O)n(CC(=O)N(C)C)c1=O)c1ccc(F)cc1F", "velvetleaf", 0]
]}

We now examine a further molecule.
Please state recorded Velvetleaf plant response rating (tested on velvetleaf) of `CC(C)N(C(=O)n1oc(=O)n(CC=Cc2ccccc2)c1=O)c1ccc(F)cc1`
0

====

- Test system: wild oat
- METHOD: Test B pre/postemergence wild oat
- Type: in vivo, Avena fatua
- CONDITION NOTES: Preemergence, Rate 125 g/ha; scale of 0 to 10 where 0 is no effect and 10 is complete control
QUANTITY: Plant response rating, Wild oats

Worked examples follow.
{"columns": ["MOLECULE", "RESULT"],
 "data": [
  ["COP(=O)(CCn1c(=O)on(C(=O)N(c2ccccc2)C(C)C)c1=O)OC", 0],
  ["CC(C)N(C(=O)n1oc(=O)n(C(C)C(=O)N(C)C)c1=O)c1ccc(F)cc1F (stereo not shown)", 6]
]}

Which Plant response rating, Wild oats is listed for `CC(C)N(C(=O)n1oc(=O)n(CCF)c1=O)c1ccc(F)cc1F` ?
9

Which Plant response rating, Wild oats is listed for `CCOC(=O)C=C(Cn1c(=O)on(C(=O)N(c2ccc(F)cc2)C(C)C)c1=O)OCC` ?
0

====

- System: sugar beet
- METHOD: Test B pre/postemergence sugar beet
- Format: in vivo, Beta vulgaris
- CONDITION NOTES: Rate 250 g/ha, Postemergence; scale 0 to 10, 0 is no effect, 10 is complete control
QUANTITY: Plant response rating, Sugarbeets
Give the figure by itself; no unit, no explanation.

Worked examples follow.
{"columns": ["CHEMICAL SMILES", "QUANTITATIVE READOUT"],
 "data": [
  ["CCCn1c(=O)on(C(=O)N(c2ccccc2)C(C)C)c1=O", 6],
  ["CCN(CC)C(=O)n1oc(=O)n(Cc2ccccc2)c1=O", 0],
  ["CC(C)N(C(=O)n1oc(=O)n(N(C)C)c1=O)c1ccc(F)cc1", 2],
  ["CC(C)N(C(=O)n1oc(=O)n(-c2cnn(C)c2Cl)c1=O)c1ccc(F)cc1", 0]
]}

We now examine a further compound.
Which Plant response rating, Sugarbeets is listed for `CC(C)N(Cc1ccccc1)C(=O)n1oc(=O)n(C(C)C)c1=O` ?
3

====

The compounds listed here are annotated with their Cocklebur plant response rating.
- Test system: cocklebur
- METHOD: Test B pre/postemergence cocklebur
- Format: in vivo, Xanthium strumarium
- CONDITION NOTES: Postemergence, Rate 500 g/ha; scale of 0 to 10 where 0 is no effect and 10 is complete control
Give the figure by itself; no unit, no explanation.

Worked examples follow.
{"columns": ["COMPOUND", "QUANTITATIVE READOUT"],
 "data": [
  ["CC(C)N(C(=O)n1oc(=O)n(C(CF)CF)c1=O)c1ccc(Cl)cc1", 4],
  ["CC(C)N(C(=O)n1oc(=O)n(C[Si](C)(C)c2ccccc2)c1=O)c1ccc(Cl)cc1", 0],
  ["CC(C)N(C(=O)n1oc(=O)n(CC#N)c1=O)c1ccccc1", 0]
]}

We now examine a further compound.
Which Cocklebur plant response rating is listed for C=CC(CC)n1c(=O)on(C(=O)N(c2ccccc2)C(C)C)c1=O (stereo not shown) ?
0

====

The molecules listed here are annotated with their Bedstraw plant response rating.
- Test system: bedstraw
- METHOD: Test B pre/postemergence bedstraw
- Type: in vivo, Galium aparine
- CONDITION NOTES: Preemergence, Rate 250 g/ha; scale 0 to 10, 0 is no effect, 10 is complete control
Give the figure by itself; no unit, no explanation.

Worked examples follow.
{"columns": ["MOLECULE", "EXPERIMENTAL SYSTEM", "QUANTITATIVE READOUT"],
 "data": [
  ["Cc1ccccc1-n1c(=O)on(C(=O)N(c2ccc(F)cc2)C2CCC2)c1=O [Compound 200]", "bedstraw", 0],
  ["CC(C)N(C(=O)n1oc(=O)n([C@@H](C)c2ccccc2)c1=O)c1ccc(F)cc1 [Compound 167]", "bedstraw", 3],
  ["CC(C)N(C(=O)n1oc(=O)n(CC2OCCO2)c1=O)c1ccc(F)cc1F [Compound 501]", "bedstraw", 10]
]}

Which Bedstraw plant response rating is listed for CC(C)N(C(=O)n1oc(=O)n(CC=Cc2ccccc2)c1=O)c1ccc(F)cc1 [Compound 210] ?
0

====

- Test system: smallflower flatsedge
- METHOD: Test B flood test smallflower flatsedge
- Type: in vivo, Cyperus difformis
- CONDITION NOTES: Rate 500 g/ha, headed Pre-emergence (flood test species); scale 0 to 10 (0 no effect, 10 complete control)
QUANTITY: Plant response rating, S. Flatsedge
Give the figure by itself; no unit, no explanation.

Worked examples follow.
{"columns": ["COMPOUND", "Plant response rating, S. Flatsedge"],
 "data": [
  ["CCN(Cc1ccccc1)C(=O)n1oc(=O)n(-c2c(C)cccc2C)c1=O [Compound 70]", 0],
  ["CC(C)N(C(=O)n1oc(=O)n(Cc2ccccc2)c1=O)c1ccc(F)cc1 [Compound 78]", 0],
  ["CC(C)N(C(=O)n1oc(=O)n(-c2cnn(C)c2)c1=O)c1ccccc1 [Compound 123]", 0]
]}

We now examine a further compound.
Which Plant response rating, S. Flatsedge is listed for CC(C)N(C(=O)n1oc(=O)n(-c2ccc(Cl)cc2Cl)c1=O)c1ccc(F)cc1 [Compound 7] ?
0

====

- System: pigweed
- METHOD: Test B pre/postemergence pigweed
- Assay type: in vivo, Amaranthus retroflexus
- CONDITION NOTES: Rate 125 g/ha, Postemergence; scale 0 to 10
QUANTITY: Redroot pigweed plant response rating
Give the figure by itself; no unit, no explanation.

Worked examples follow.
{"columns": ["CHEMICAL SMILES", "QUANTITY", "QUANTITATIVE READOUT"],
 "data": [
  ["CC(C)N(C(=O)n1oc(=O)n(-c2ccc(OC(F)(F)F)cc2)c1=O)c1ccc(F)cc1", "Redroot pigweed plant response rating", 4],
  ["CC(=O)OCCCCn1c(=O)on(C(=O)N(c2ccc(F)cc2)C(C)C)c1=O", "Redroot pigweed plant response rating", 4],
  ["CC(C)N(C(=O)n1oc(=O)n(-c2cccnc2)c1=O)c1ccccc1", "Redroot pigweed plant response rating", 0],
  ["CC(C)N(C(=O)n1oc(=O)n(-c2cccnc2)c1=O)c1ccc(F)cc1", "Redroot pigweed plant response rating", 0]
]}

Please state recorded Redroot pigweed plant response rating (tested on pigweed) of `CON=C(Cn1c(=O)on(C(=O)N(c2ccc(F)cc2)C(C)C)c1=O)C(F)(F)F`
2

Please state recorded Redroot pigweed plant response rating (tested on pigweed) of `CC(C)N(C(=O)n1oc(=O)n(CC=Cc2ccccc2)c1=O)c1ccc(F)cc1`
0

Please state recorded Redroot pigweed plant response rating (tested on pigweed) of `CCc1ccc(N(C(=O)n2oc(=O)n(-c3ccccc3C)c2=O)C(C)C)cc1`
0

====

The molecules listed here are annotated with their Plant response rating, Giant foxtail.
- System: giant foxtail
- METHOD: Test B pre/postemergence giant foxtail
- Assay type: in vivo, Setaria faberii
- CONDITION NOTES: Postemergence, Rate 500 g/ha; scale of 0 to 10 where 0 is no effect and 10 is complete control
Give the figure by itself; no unit, no explanation.

Worked examples follow.
{"columns": ["MOLECULE", "Plant response rating, Giant foxtail"],
 "data": [
  ["CC(C)N(C(=O)n1oc(=O)n(C(C)C(=O)c2ccccc2)c1=O)c1ccccc1 (centres unmarked)", 0],
  ["Cc1noc(C)c1Cn1c(=O)on(C(=O)N(c2ccccc2)C(C)C)c1=O", 4],
  ["COC(=O)C(C)n1c(=O)on(C(=O)N(c2ccc(Cl)cc2)C(C)C)c1=O (centres unmarked)", 0]
]}

Which Plant response rating, Giant foxtail is listed for `COCCn1c(=O)on(C(=O)N(c2ccccc2)C(C)C)c1=O` ?
9

Which Plant response rating, Giant foxtail is listed for COC(C)n1c(=O)on(C(=O)N(c2ccc(Cl)cc2)C(C)C)c1=O (centres unmarked) ?
0
